experiment: inhibitors of hydroxyurea-induced Chk1 phosphorylation, primary screen, imaging, HeLa, phospho-Chk1 nuclear intensity (AID 1187); details: hydroxyurea-induced phospho-Chk1 immunofluorescence imaging, higher = more signal; also: test concentration not given here
Active and inactive are the calls of the source. No rule for the calls is given here.
For each entry below, report its z-score value.

Lab note: COc1cc(OC)c(C(O)C2C=CC3C(=O)N(c4ccccc4)C(=O)C3N2Nc2ccccc2F)cc1Br (configuration not stated) gave z-score of -0.0782 (inactive)

Lab note: `COCCOC(=O)N1C(=O)[C@@]2(c3cc(C#CC4=CCCCC4)ccc31)[C@H](c1ccc(OCCO)cc1)N1[C@H](c3ccccc3)[C@H](c3ccccc3)OC(=O)[C@H]1[C@@H]2C(=O)N1CCCCCCC1` gave z-score of 0.437 (inactive)

Lab note: `C=CCNC(=O)[C@@H]1[C@H]2C(=O)O[C@H](c3ccccc3)[C@H](c3ccccc3)N2[C@H](c2ccccc2OCCO)[C@@]12C(=O)N(C(=O)OCCOC)c1ccc(C#CCCO)cc12` gave z-score of -0.538 (inactive)

Lab note: `[N-]=[N+]=Nc1ccccc1[C@@H]1OC(c2ccc(OCCCO)cc2)=N[C@]1(Cc1ccccc1)C(N)=O` gave z-score of -0.543 (inactive)

Lab note: `C[N+](C)(C)CCCCCCNC(=O)[C@H]1C[C@H]2C(=O)NCC(=O)N2[C@H]1c1cccc(OCCO)c1` gave z-score of 0.136 (inactive)

Lab note: CCCCC(O)C1C=CC2C(=O)NC(=O)C2N1Nc1ccc(Cl)cc1Cl (configuration not stated) gave z-score of -0.438 (inactive)

Lab note: COc1cc2c(cc1O)C(c1ccc(CN3CCCC3)cc1)N(Cc1ccc([N+](=O)[O-])o1)CC2 (configuration not stated) gave z-score of 0.134 (inactive)

Hey, just so you know, these numbers are from PubChem BioAssay.
